# Tested on: E28 (patient-derived glioblastoma stem cells of classical subtype);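 note: cell Painting imaging in 384-well plates, CellProfiler features reduced to at least 20 principal components, Euclidean distance versus same-plate DMSO vehicle wells (0.1% v/v), median over six images per well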
# TEST_PROTOCOL: phenotypic distance (Euclidean, principal components) from DMSO controls (arbitrary units); higher = stronger morphological change
# STATED_CONDITIONS: 12.3 nM; exposure time: 72 h
Structures can show the parent of a compound that is named as a salt.
Listed next: entries and their corresponding phenotypic distance.
Answer as a number with no unit attached.

# COMPOUND, phenotypic distance
rows = [
    ("COc1cccc2c1C(=O)c1c(O)c3c(c(O)c1C2=O)C[C@@](O)(C(C)=O)C[C@@H]3O[C@H]1C[C@H](N)[C@H](O)[C@H](C)O1 [Daunorubicin hydrochloride]", 2.56),
    ("N=C(N)c1ccc(-c2ccc(-c3ccc(C(=N)N)cc3)o2)cc1 [Furamidine dihydrochloride]", 0.731),
    ("Nc1nc(Cl)nc2c1ncn2[C@@H]1O[C@H](CO)[C@@H](O)[C@@H]1F [Clofarabine]", 1.42),
    ("CC1(C)S[C@@H]2[C@H](NC(=O)Cc3ccccc3)C(=O)N2[C@H]1C(=O)O [Benzylpenicillin sodium]", 0.57),
    ("COc1cc(N)c(Cl)cc1C(=O)NC1CCN(CCCOc2ccc(F)cc2)CC1OC (stereo not drawn) [Cisapride]", 0.592),
    ("C[C@H](NC(=O)[C@@H](O)c1cc(F)cc(F)c1)C(=O)N[C@@H]1C(=O)N(C)c2ccccc2-c2ccccc21", 0.88),
    ("CCC1=C[C@@H]2CN(C1)Cc1c([nH]c3ccccc13)[C@@](C(=O)OC)(c1cc3c(cc1OC)N(C)[C@H]1[C@@](O)(C(=O)OC)[C@H](OC(C)=O)[C@]4(CC)C=CCN5CC[C@]31[C@@H]54)C2 [Vinorelbine Tartrate]", 0.83),
    ("CC(C)C[C@H](NC(=O)[C@H](CCc1ccccc1)NC(=O)CN1CCOCC1)C(=O)N[C@@H](Cc1ccccc1)C(=O)N[C@@H](CC(C)C)C(=O)[C@@]1(C)CO1 [Carfilzomib]", 5.12),
]

Lab note: compound CC(=O)[C@]1(O)Cc2c(O)c3c(c(O)c2[C@@H](O[C@H]2C[C@H](N)[C@H](O)[C@H](C)O2)C1)C(=O)c1ccccc1C3=O [Idarubicin] tested on E28; recorded phenotypic distance was 3.28

Lab note: compound CN1CCC(NC(=O)c2cc(-c3c(O)cc(O)cc3Oc3ccc([N+](=O)[O-])cc3)on2)CC1 [NMS-E973] tested on E28; recorded phenotypic distance was 0.671

Lab note: compound CNc1ccc2oc(C[C@H]3O[C@@]4(CC[C@H]3C)O[C@H]([C@H](C)C(=O)c3ccc[nH]3)[C@H](C)C[C@H]4C)nc2c1C(=O)O [Calcimycin] tested on E28; recorded phenotypic distance was 0.777

Lab note: compound CN(C)C(=O)Oc1ccc[n+](C)c1 [Pyridostigmine iodide] tested on E28; recorded phenotypic distance was 0.757

Lab note: compound CSc1ccc2c(c1)N(CCC1CCCCN1C)c1ccccc1S2 (stereo not drawn) [Thioridazine hydrochloride] tested on E28; recorded phenotypic distance was 0.64

Lab note: compound O=C(C1CC1)N1CC[C@@H](Cc2n[nH]c(=O)n2-c2ccc(-c3ccc4occc4c3)cc2)C1 tested on E28; recorded phenotypic distance was 3.11

Lab note: compound CCCSc1ccc2[nH]c(NC(=O)OC)nc2c1 [Albendazole] tested on E28; recorded phenotypic distance was 0.904

Lab note: compound NCCCP(=O)(O)O [3-Aminopropylphosphonic acid] tested on E28; recorded phenotypic distance was 0.887

Lab note: compound CC(C)C[C@H]1C(=O)N2CCC[C@H]2[C@]2(O)O[C@](NC(=O)[C@@H]3C=C4c5cccc6[nH]c(Br)c(c56)C[C@H]4N(C)C3)(C(C)C)C(=O)N12 [Bromocryptine mesylate] tested on E28; recorded phenotypic distance was 0.531

Lab note: compound Clc1ccc(COC(Cn2ccnc2)c2ccc(Cl)cc2Cl)c(Cl)c1 (stereo not drawn) [Miconazole] tested on E28; recorded phenotypic distance was 0.863

Lab note: compound CCC(C)(C)C(=O)O[C@H]1C[C@@H](C)C=C2C=C[C@H](C)[C@H](CC[C@@H]3C[C@@H](O)CC(=O)O3)[C@H]21 [Simvastatin] tested on E28; recorded phenotypic distance was 1.13
